Experiment: Oral bioavailability in cynomolgus monkey at 3 mg/kg
Type: ADME, organism-based, Macaca fascicularis
Conditions: in vivo

Compound	bioavailability [%]
O=C(CC1(c2ccccc2)C2CC3CC1CC(C2)C3O)N1CC(O)C1 (stereo in doubt; form 2)	57

----------
Assay: Metabolic stability in mouse liver microsomes assessed as parent compound remaining after 10 mins
Assay type: ADME, microsome
Details: liver microsomes, read-out: Stability
// classify(record): look up remaining at 10 min in ranges Low: < 50%; Mid: ≥ 50% and < 70%; High: ≥ 70%

Compound	Label
O=C(CC1(c2ccc(F)cc2)C2CC3CC(C2)CC1(O)C3)N1CC(O)C1 (racemic)	Low
Cc1cccc(C2(CC(=O)N3CC(O)C3)C3CC4CC2CC(C3)C4O)c1 (racemic)	Mid
CC1(O)C2CC3CC1CC(C2)C3(CC(=O)N1CC(O)C1)c1ccc(F)cc1 (racemic)	Mid
N#CC1C2CC3CC1CC(C2)C3(CC(=O)N1CC(O)C1)c1ccc(F)cc1 (racemic)	Low
O=C(CC1(c2ccccc2)C2CC3CC1CC(C2)C3O)N1CC(O)C1 (racemic)	High
O=C(CC1(c2ccc(-c3ccncc3)cc2)C2CC3CC1CC(C2)C3O)N1CC(O)C1 (racemic)	Low
O=C(CC1(Cc2ccccc2)C2CC3CC1CC(C2)C3O)N1CC(O)C1 (racemic)	Low
NC(=O)C1C2CC3CC1CC(C2)C3(CC(=O)N1CC(O)C1)c1ccc(F)cc1 (racemic)	High
CC1(O)C2CC3CC(C2)C(CC(=O)N2CC(O)C2)(c2ccc(F)cc2)C1C3 (racemic)	Low
O=C(CC1(c2ccccn2)C2CC3CC1CC(C2)C3O)N1CC(O)C1 (racemic)	High
O=C(CC1(C2CCCCC2)C2CC3CC1CC(C2)C3O)N1CC(O)C1 (racemic)	Low
O=C(CC1(c2cccnc2)C2CC3CC1CC(C2)C3O)N1CC(O)C1 (racemic)	Mid
O=C(CC1(c2ccc(F)cc2)C2CC3CC1CC(C2)C3O)N1CC(O)C1 (racemic)	High

----------
Test: Protein binding in mouse plasma
Type: ADME, cell-free
Details: read-out: PPB (converted)
Measure: fraction unbound

Compound	Measure	Measured
O=C(CC1(c2ccccc2)C2CC3CC1CC(C2)C3O)N1CC(O)C1 (stereo in doubt; form 2)	fraction unbound	0.37

----------
Test: Metabolic stability in human liver microsomes assessed as parent compound remaining after 10 mins
Type: ADME, microsome
Details: liver microsomes, read-out: Stability
I'd appreciate it if you marked entries condition met when remaining at 10 min is lower than 90% and condition not met when it is not.

Molecule	Label
O=C(CC1(c2cccnc2)C2CC3CC1CC(C2)C3O)N1CC(O)C1 (racemic)	condition met
O=C(CC1(c2ccc(-c3ccncc3)cc2)C2CC3CC1CC(C2)C3O)N1CC(O)C1 (racemic)	condition met
N#CC1C2CC3CC1CC(C2)C3(CC(=O)N1CC(O)C1)c1ccc(F)cc1 (racemic)	condition met
O=C(CC1(c2ccc(-c3ccc(F)cc3)cc2)C2CC3CC1CC(C2)C3O)N1CC(O)C1 (racemic)	condition met
CS(=O)(=O)c1ccc(C2(CC(=O)N3CC(O)C3)C3CC4CC2CC(C3)C4O)cc1 (racemic)	condition not met

----------
Test: Metabolic stability in rat liver microsomes assessed as parent compound remaining after 10 mins
Format: ADME, microsome
Conditions: liver microsomes, read-out: Stability
I'd appreciate it if you marked entries fulfilled when remaining at 10 min is lower than 50% and not fulfilled when it is not.

Compound	Label
O=C(CC1(Cc2ccccc2)C2CC3CC1CC(C2)C3O)N1CC(O)C1 (racemic)	fulfilled
COc1ccc(C2(CC(=O)N3CC(O)C3)C3CC4CC2CC(C3)C4O)cc1 (racemic)	not fulfilled
O=C(CC1(c2ccc(Cl)cc2)C2CC3CC1CC(C2)C3O)N1CC(O)C1 (racemic)	not fulfilled
O=C(CC1(c2ccncc2)C2CC3CC1CC(C2)C3O)N1CC(O)C1 (racemic)	not fulfilled
N#CC12CC3CC(C1)C(CC(=O)N1CC(O)C1)(c1ccc(F)cc1)C(C3)C2 (stereo not drawn)	fulfilled
Cc1ccc(C2(CC(=O)N3CC(O)C3)C3CC4CC2CC(C3)C4O)cc1 (racemic)	fulfilled

----------
Molecular target: 11-beta-hydroxysteroid dehydrogenase 1 (Mus musculus)
Sequence (P50172 whole entry): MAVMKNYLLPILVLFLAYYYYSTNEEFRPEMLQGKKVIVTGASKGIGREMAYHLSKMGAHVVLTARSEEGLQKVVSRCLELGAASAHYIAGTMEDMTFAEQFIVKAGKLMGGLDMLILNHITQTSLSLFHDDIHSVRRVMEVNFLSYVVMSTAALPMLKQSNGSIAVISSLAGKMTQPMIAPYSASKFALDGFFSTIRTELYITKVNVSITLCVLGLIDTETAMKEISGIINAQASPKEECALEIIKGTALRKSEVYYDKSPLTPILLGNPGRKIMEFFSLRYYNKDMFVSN
Test: Inhibition of 11beta-HSD1 in mouse 3T3L1 cells
Format: cell-based
pIC50: −log10 of the molar value.

Compound	pIC50
O=C(CC1(c2ccccc2)C2CC3CC1CC(C2)C3O)N1CC(O)C1 (stereo in doubt; form 2)	7.54

----------
Biological target: Nuclear receptor subfamily 1 group I member 2 (Homo sapiens)
Sequence (O75469 whole entry): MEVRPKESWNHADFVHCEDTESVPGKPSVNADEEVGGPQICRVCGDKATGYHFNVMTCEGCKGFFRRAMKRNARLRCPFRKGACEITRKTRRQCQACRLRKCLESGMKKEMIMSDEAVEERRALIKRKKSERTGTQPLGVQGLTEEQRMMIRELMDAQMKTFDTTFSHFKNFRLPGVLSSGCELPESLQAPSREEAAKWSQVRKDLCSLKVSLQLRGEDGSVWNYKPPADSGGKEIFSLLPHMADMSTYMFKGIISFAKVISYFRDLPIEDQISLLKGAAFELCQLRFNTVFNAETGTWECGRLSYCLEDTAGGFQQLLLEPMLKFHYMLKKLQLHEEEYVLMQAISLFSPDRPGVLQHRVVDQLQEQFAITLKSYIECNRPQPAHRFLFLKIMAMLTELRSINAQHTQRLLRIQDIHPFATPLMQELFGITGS
Experiment: Activation of PXR (unknown origin)
pEC50: −log10 of the molar value.
Each record here notes measured pEC50.
Measure: pEC50

Molecule	Measure	Measured
N#CC12CC3CC(C1)C(CC(=O)N1CC(O)C1)(c1ccc(F)cc1)C(C3)C2 (centres undefined)	pEC50	< 4.30
O=C(CC1(c2ccc(F)cc2)C2CC3CC1CC(F)(C3)C2)N1CC(O)C1 (centres undefined)	pEC50	< 4.60
O=C(CC1(c2ccc(F)cc2)C2CC3CC(C2)CC1(O)C3)N1CC(O)C1 (racemic)	pEC50	< 4.30
O=C(CC1(c2ccc(F)cc2)C2CC3CC(C2)CC1C3)N1CC(O)C1 (centres undefined)	pEC50	5.17
NC(=O)C12CC3CC(C1)C(CC(=O)N1CC(O)C1)(c1ccc(F)cc1)C(C3)C2 (centres undefined)	pEC50	< 4.30
CC1(O)C2CC3CC(C2)C(CC(=O)N2CC(O)C2)(c2ccc(F)cc2)C1C3 (racemic)	pEC50	< 4.30
O=C(CC1(c2ccc(F)cc2)C2CC3CC1CC(C2)C3O)N1CC(O)C1 (racemic)	pEC50	< 4.30
COC12CC3CC(C1)C(CC(=O)N1CC(O)C1)(c1ccc(F)cc1)C(C3)C2 (centres undefined)	pEC50	< 4.30
O=C(CC1(c2ccc(F)cc2)C2CC3CC1CC(O)(C3)C2)N1CC(O)C1 (centres undefined)	pEC50	< 4.30

----------
Assay: Protein binding in dog plasma
Assay type: ADME, cell-free, Canis lupus familiaris
Conditions: read-out: PPB (converted)

Molecule	fraction unbound
O=C(CC1(c2ccccc2)C2CC3CC1CC(C2)C3O)N1CC(O)C1 (stereo in doubt; form 2)	0.43

----------
Assay: MRT in dog at 1 mg/kg, iv
Type: ADME, organism-based, Canis lupus familiaris
Conditions: in vivo

Compound	MRT (h)
O=C(CC1(c2ccccc2)C2CC3CC1CC(C2)C3O)N1CC(O)C1 (stereo in doubt; form 2)	3.5

----------
Assay: AUC (0 to 24 hrs) in mouse at 5 mg/kg, iv
Type: ADME, organism-based
Set-up: time < 24 hr, dose 5 mg/kg, route intravenous
Conditions: in vivo

Compound	AUC(0-t) at 24 h [µM·h]
O=C(CC1(c2ccccc2)C2CC3CC1CC(C2)C3O)N1CC(O)C1 (stereo in doubt; form 2)	5

----------
Molecular target: Cytochrome P450 3A4 (Homo sapiens, UniProt P08684)
Sequence (P08684 whole entry): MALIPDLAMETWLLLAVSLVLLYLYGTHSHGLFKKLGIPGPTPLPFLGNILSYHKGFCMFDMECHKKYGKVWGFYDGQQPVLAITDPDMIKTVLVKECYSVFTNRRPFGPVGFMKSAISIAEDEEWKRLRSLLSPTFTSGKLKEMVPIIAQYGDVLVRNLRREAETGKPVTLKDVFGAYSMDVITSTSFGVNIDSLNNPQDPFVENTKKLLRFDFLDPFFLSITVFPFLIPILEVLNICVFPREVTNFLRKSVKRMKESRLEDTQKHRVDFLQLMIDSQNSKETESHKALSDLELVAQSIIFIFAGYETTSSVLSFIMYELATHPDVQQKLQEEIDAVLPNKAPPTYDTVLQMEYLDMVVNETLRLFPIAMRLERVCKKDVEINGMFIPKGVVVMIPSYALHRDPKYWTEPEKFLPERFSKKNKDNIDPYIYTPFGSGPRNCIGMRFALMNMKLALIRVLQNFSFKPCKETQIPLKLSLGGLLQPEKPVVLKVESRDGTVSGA

Compound	Target Of Assay	IC50
O=C(CC1(c2ccccc2)C2CC3CC1CC(C2)C3O)N1CC(O)C1 (stereo in doubt; form 2)	Cytochrome P450 3A4 (Homo sapiens, UniProt P08684)	> 40 µM

----------
Test: Oral bioavailability in rat at 10 mg/kg
Type: ADME, organism-based
Details: in vivo
Measure: bioavailability (%)

Molecule	Measure	Unit Abbreviation	Measured
O=C(CC1(c2ccccc2)C2CC3CC1CC(C2)C3O)N1CC(O)C1 (stereo in doubt; form 2)	bioavailability	%	20

----------
Tested on: Liver
Experiment: Metabolic stability in rat liver microsomes assessed as parent compound remaining after 10 mins
Assay type: ADME, microsome
Details: microsomes, 10 min
Measure: Stability (%)

Molecule	Measured
O=C(CC1(c2ccccc2)C2CC3CC1CC(C2)C3O)N1CC(O)C1 (stereo in doubt; form 2)	67
O=C(CC1(c2ccc(F)cc2)C2CC3CC1CC(C2)C3O)N1CC(O)C1 (stereo in doubt)	58
O=C(CC1(c2ccc(F)cc2)C2CC3CC1CC(C2)C3O)N1CC(O)C1 (racemic)	88
O=C(CC1(c2ccccc2)C2CC3CC1CC(C2)C3O)N1CC(O)C1 (stereo in doubt; form 1)	36
O=C(CC1(c2ccccc2)C2CC3CC1CC(C2)C3O)N1CC(O)C1 (racemic) [BMS-816336]	72
O=C(CC1(c2ccc(F)cc2)C2CC3CC1CC(C2)C3O)N1CC(O)C1 (single isomer, unassigned; enantiomer 2)	75

----------
Assay: AUC (0 to 24 hrs) in dog at 1 mg/kg, iv
Format: ADME, organism-based, Canis lupus familiaris
Parameters: time < 24 hr, dose 1 mg/kg, route intravenous
Conditions: in vivo

Compound	Unit Abbreviation	AUC(0-t) at 24 h
O=C(CC1(c2ccccc2)C2CC3CC1CC(C2)C3O)N1CC(O)C1 (stereo in doubt; form 2)	µM·h	4.6

----------
Test: Permeability from basolateral to apical side in human Caco2 cells
Type: ADME, cell-based
Settings: Caco-2, read-out: permeability

Compound	Unit Abbreviation	Papp B→A
O=C(CC1(c2ccccc2)C2CC3CC1CC(C2)C3O)N1CC(O)C1 (stereo in doubt; form 2)	×10⁻⁶ cm/s	28.5
